Recorded growth for the following molecules
Test system: SK-OV-3 ovarian
protocol_notes: NCI-60 one-dose screen, 48 h (100 = growth as untreated, 0 = no growth, -100 = all killed)
experimental_conditions: 10 µM unless noted
Compounds without any hit were thinned out: in the full panel of roughly 83,000, 20% have a hit.
Respond with the bare value in %.

molecule	growth, %
Cc1cc2nc3c(=O)[nH]c(=O)nc-3n(CC=O)c2cc1C	106
CCOC(=O)c1ccc(N(CCC(=O)O)C(C)=O)cc1	114
FC1(F)CCN(Cc2c[nH]c3cc(Cl)ccc23)C[C@H]1CCc1ccccc1	84

Can you share its growth? I mean this molecule: Cc1ccc(C2CC(c3cccs3)=NN2c2ccc(S(N)(=O)=O)cc2)s1 (stereo unspecified)
101

# iterate: CCSc1ccc([C@@H]2[C@@H](N)C(=O)N2c2cc(OC)c(OC)c(OC)c2)cc1
44

# iterate: C#CC[C@@H]1C[C@]2(C)[C@H]3CC[C@@H]4[C@H]5C(C(=C)C)CC[C@]5(C(=O)NCCN(CCN)CCN)CC[C@@]4(C)[C@]3(C)CC[C@H]2C(C)(C)[C@H]1OC(C)=O (stereo partly specified)
105

# iterate: CSCCC1NC(=O)C(C(C)=Nc2ccccc2)=C1O (stereo unspecified)
101

# iterate: NC(=S)N/N=C(/c1cccs1)C1CC1
103
